Test system: human venous whole blood, CD8 positive population (pERK)
ASSAY_SUMMARY: DGK human whole blood pERK assay
Format: cell-based
CONDITION_SUMMARY: human whole blood pERK; read-out: DGK HWB
ENDPOINT_LABEL: EC50 (nM)
Answer format: numeric, nM implied, no suffix.

[
  {
    "MOLECULE": "CCO[C@H]1CN(c2cc(=O)n(C)c3ccc(C#N)nc23)CC[C@@H]1Oc1cccc(OC(F)(F)F)c1 [Example 352]",
    "ENDPOINT_UNIT": "nM",
    "EC50": 12000
  }
]

Challenge: Quick check: EC50 of CCO[C@H]1CN(c2cc(=O)n(C)c3ccc(C#N)nc23)CC[C@@H]1Oc1nc2ccccc2s1 [Example 373] ?
Response given: 1600

Challenge: Bench note: what EC50 did CC1CN(c2c(C#N)c(=O)n(C)c3ccc(C#N)nc23)CCC1N(C)Cc1ccc(F)cc1 (single isomer, unassigned) [Example 324] show?
Response given: 20000

Challenge: Returns the measured EC50 for the input molecule. Input: CCO[C@H]1CN(c2cc(=O)n(C)c3ccc(C#N)nc23)CC[C@@H]1Oc1ccc2oc(C)nc2c1 [Example 356]
Response given: 3900

Challenge: So what does the record say about EC50 for CCO[C@H]1CN(c2cc(=O)n(C)c3ccc(C#N)nc23)CC[C@@H]1Oc1cc(C(F)(F)F)ccn1 [Example 365] ?
Response given: 600

Challenge: # lookup: EC50 of CC[C@@H]1CN(c2cc(=O)n(C)c3ccc(C#N)nc23)CC[C@H]1Oc1ccc(OC(C)C)cn1 (single isomer, unassigned) [Example 193]
Response given: 400

Challenge: What measured EC50 goes with CCO[C@H]1CN(c2cc(=O)n(C)c3ccc(C#N)nc23)CC[C@@H]1Oc1ccccc1 (relative stereo) [Example 342] ?
Response given: 840

====

We begin with a simple list: items and their reported log10(IC50).
SYSTEM_TESTED: human DGKζ (Homo sapiens (Human))
Sequence (Q13574 whole entry, looked up): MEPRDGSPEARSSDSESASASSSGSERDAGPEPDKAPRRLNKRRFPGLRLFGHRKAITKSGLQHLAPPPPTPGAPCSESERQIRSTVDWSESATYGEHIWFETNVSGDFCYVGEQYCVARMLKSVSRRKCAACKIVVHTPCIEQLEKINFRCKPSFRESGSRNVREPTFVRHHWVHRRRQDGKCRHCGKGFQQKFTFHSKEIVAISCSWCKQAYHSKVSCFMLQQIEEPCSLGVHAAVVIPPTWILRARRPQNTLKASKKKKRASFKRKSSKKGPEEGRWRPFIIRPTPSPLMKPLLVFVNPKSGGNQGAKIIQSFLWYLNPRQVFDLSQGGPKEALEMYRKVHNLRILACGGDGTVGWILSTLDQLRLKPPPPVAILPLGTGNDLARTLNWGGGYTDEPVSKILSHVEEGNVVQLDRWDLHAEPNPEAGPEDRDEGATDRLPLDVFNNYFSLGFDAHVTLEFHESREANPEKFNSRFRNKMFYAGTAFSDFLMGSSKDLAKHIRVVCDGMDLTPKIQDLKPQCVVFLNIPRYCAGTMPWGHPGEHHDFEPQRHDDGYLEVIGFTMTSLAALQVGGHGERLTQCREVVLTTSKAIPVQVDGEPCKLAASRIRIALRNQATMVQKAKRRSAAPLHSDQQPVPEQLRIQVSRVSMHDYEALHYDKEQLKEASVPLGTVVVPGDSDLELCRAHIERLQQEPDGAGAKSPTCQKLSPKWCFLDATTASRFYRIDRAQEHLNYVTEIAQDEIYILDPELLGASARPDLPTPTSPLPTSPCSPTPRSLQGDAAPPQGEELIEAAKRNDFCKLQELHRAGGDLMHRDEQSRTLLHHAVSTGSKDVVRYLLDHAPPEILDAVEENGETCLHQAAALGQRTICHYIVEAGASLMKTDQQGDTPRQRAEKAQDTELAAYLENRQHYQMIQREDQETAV
ASSAY_SUMMARY: biochemical
Format: biochemical
CONDITION_SUMMARY: liposome (LIPGLO) assay; read-out: DGKζ LIPGLO IC50
// units: µM (pre-log); metric: IC50; scale: log10

Some solved cases for reference:
[
  {
    "MOLECULE": "C[C@@H]1CN(c2cc(=O)n(C)c3ccc(C#N)nc23)CC[C@@H]1Oc1cccc(C2CC2)c1 [Example 181]",
    "ENDPOINT_LABEL": "log10(IC50)",
    "RECORDED_RESULT": 0.15
  },
  {
    "MOLECULE": "Cn1c(=O)cc(N2CCC(Oc3ccc(Cl)cn3)CC2)c2nc(C#N)ccc21",
    "ENDPOINT_LABEL": "log10(IC50)",
    "RECORDED_RESULT": 0.85
  },
  {
    "MOLECULE": "C[C@@H]1CN(c2cc(=O)n(C)c3ccc(C#N)nc23)CC[C@@H]1Oc1cccc(C2CC2)c1 [Example 180]",
    "ENDPOINT_LABEL": "log10(IC50)",
    "RECORDED_RESULT": 0.00
  }
]

Challenge: For the molecule "Cn1c(=O)c(C#N)c(N2CCC(Oc3cc(F)ccc3Cl)CC2)c2nc(Cl)ccc21" , what log10(IC50) is on record?
Response given: 1.76

Challenge: # log10(IC50) lookup, item "CN(C)C(=O)c1ccc(OC2CCN(c3c(C#N)c(=O)n(C)c4ccc(Cl)nc34)CC2)cc1"
Response given: 2.38

Challenge: Would you mind telling me what log10(IC50) value was observed for "Cc1cc(OC2CCN(c3cc(=O)n(C)c4ccc(C#N)nc34)CC2)ccc1C(C)C" ?
Response given: 0.74

Challenge: Quick check: log10(IC50) of "CC[C@@H]1CN(c2cc(=O)n(C)c3ccc(C#N)nc23)CC[C@H]1Oc1ccc(OC(C)C)cc1" ?
Response given: -0.27

The reported numbers originate from patent US11964973B2.
